In this section we review reported Size (nm) values for a set of compounds.
MEASUREMENT PROTOCOL: LNP size and size distribution by Dynamic Light Scattering (Method B)
Type: physicochemical
CONDITION SUMMARY: LNP formulated by Method B, GFP-mRNA loaded, DLS Z-average, 37 C

COMPOUND	Size (nm)
CCCCCCCCCC(OCC)O[Si](C)(C)OCCCCCCN(CCCCO)CCCCCCOC(=O)C(CCCCCC)CCCCCCCC (centres unmarked) [Example 157]	254.0
CCCCCCCCC(CCCCCC)C(=O)OCCCCCCN(CCCCO)CCCCCCOC(=O)C(CCCCCC)CCCCCCCC (centres unmarked) [ALC-0315, reference compound]	249
CC/C=C\CCCCCOC(CCCCCCC)O[Si](C)(C)OCCCCCCN(CCCCO)CCCCCCOC(=O)C(CCCCCC)CCCCCCCC (centres unmarked) [Example 152]	229.0
CCCCC/C=C\CCOC(CCCCCCC)O[Si](C)(C)OCCCCCCN(CCCCO)CCCCCCOC(=O)C(CCCCCC)CCCCCCCC (centres unmarked) [Example 153]	230.0
CCCCCCCCC(CCCCCC)C(=O)OCCCCCCN(CCCCO)CCCCCCCCCOC(CCCCCCC)O[Si](C)(C)CCCCCC (centres unmarked) [Example 149]	283
